The reported numbers originate from patent US20070077617.

Target: fusion protein PRV
Sequence (chain, as listed by the source): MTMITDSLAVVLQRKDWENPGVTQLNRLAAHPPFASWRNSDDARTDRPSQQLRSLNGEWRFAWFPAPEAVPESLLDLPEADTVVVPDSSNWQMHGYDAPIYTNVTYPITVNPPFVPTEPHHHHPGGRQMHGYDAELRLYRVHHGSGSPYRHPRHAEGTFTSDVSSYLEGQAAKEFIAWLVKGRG
VALUE_KIND: relative cleavage efficiency (%)
# output: bare number, implied unit %

Ask: Name the recorded relative cleavage efficiency for OmpT protease variant OmpT D97E (protein) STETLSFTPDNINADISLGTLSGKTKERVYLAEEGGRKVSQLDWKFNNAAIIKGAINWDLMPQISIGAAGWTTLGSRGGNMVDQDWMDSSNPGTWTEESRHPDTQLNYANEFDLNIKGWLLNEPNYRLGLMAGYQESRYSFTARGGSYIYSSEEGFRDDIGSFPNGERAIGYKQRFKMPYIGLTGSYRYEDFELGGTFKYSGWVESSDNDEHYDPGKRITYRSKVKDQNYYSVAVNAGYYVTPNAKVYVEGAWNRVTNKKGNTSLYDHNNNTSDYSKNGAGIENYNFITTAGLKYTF .
Reply: 5
